# System: Crude diglycosidase
# measurement_notes: Examination of substrate concentration in the conversion into isoflavone aglycons by diglycosidase using soybean materials;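 further: percent of the isoflavone family total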
# Type: biochemical, Penicillium multicolor IAM7153
# condition_parameters: soymilk, substrate concentration 10%, heat treatment of enzyme no, reaction time 3 h
quantity_kind: Decomposition efficiency: ratio of each glycoside/aglycon within its isoflavone family

{"compound": "CC(=O)OC[C@H]1O[C@@H](Oc2cc(O)c3c(=O)c(-c4ccc(O)cc4)coc3c2)[C@H](O)[C@@H](O)[C@@H]1O [acetyl-genistin]", "experimental_target": "Crude diglycosidase", "result": "not detected"}
{"compound": "O=c1c(-c2ccc(O)cc2)coc2cc(O[C@@H]3O[C@H](CO)[C@@H](O)[C@H](O)[C@H]3O)ccc12 [daidzin]", "experimental_target": "Crude diglycosidase", "result": "not detected"}
{"compound": "COc1cc2c(=O)c(-c3ccc(O)cc3)coc2cc1O[C@@H]1O[C@H](COC(C)=O)[C@@H](O)[C@H](O)[C@H]1O [acetyl-glycitin]", "experimental_target": "Crude diglycosidase", "result": "not detected"}

====

# System: Crude diglycosidase
# measurement_notes: Examination of substrate concentration in the conversion into isoflavone aglycons by diglycosidase using soybean materials;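 further: percent of the isoflavone family total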
# Type: biochemical, Penicillium multicolor IAM7153
# condition_parameters: roasted soy flour, substrate concentration 10%, heat treatment of enzyme no, reaction time 3 h
quantity_kind: Decomposition efficiency: ratio of each glycoside/aglycon within its isoflavone family

{"compound": "COc1cc2c(=O)c(-c3ccc(O)cc3)coc2cc1O[C@@H]1O[C@H](CO)[C@@H](O)[C@H](O)[C@H]1O [glycitin]", "result": "not detected"}
{"compound": "O=c1c(-c2ccc(O)cc2)coc2cc(O[C@@H]3O[C@H](CO)[C@@H](O)[C@H](O)[C@H]3O)cc(O)c12 [genistin]", "result": "not detected"}
{"compound": "O=C(O)CC(=O)OC[C@H]1O[C@@H](Oc2cc(O)c3c(=O)c(-c4ccc(O)cc4)coc3c2)[C@H](O)[C@@H](O)[C@@H]1O [malonylgenistin, 6″-O-malonylgenistin]", "result": "not detected"}

====

# Test system: Crude diglycosidase
# measurement_notes: Examination of substrate concentration in the conversion into isoflavone aglycons by diglycosidase using soybean materials;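 further: percent of the isoflavone family total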
# Assay type: biochemical, Penicillium multicolor IAM7153
# condition_parameters: soymilk, substrate concentration 20%, heat treatment of enzyme no, reaction time 3 h
quantity_kind: Decomposition efficiency: ratio of each glycoside/aglycon within its isoflavone family

{"smiles_repr": "COc1cc2c(=O)c(-c3ccc(O)cc3)coc2cc1O[C@@H]1O[C@H](CO)[C@@H](O)[C@H](O)[C@H]1O", "result": "not detected"}
{"smiles_repr": "O=c1c(-c2ccc(O)cc2)coc2cc(O[C@@H]3O[C@H](CO)[C@@H](O)[C@H](O)[C@H]3O)ccc12", "result": "not detected"}
{"smiles_repr": "O=c1c(-c2ccc(O)cc2)coc2cc(O[C@@H]3O[C@H](CO)[C@@H](O)[C@H](O)[C@H]3O)cc(O)c12", "result": "not detected"}
{"smiles_repr": "CC(=O)OC[C@H]1O[C@@H](Oc2ccc3c(=O)c(-c4ccc(O)cc4)coc3c2)[C@H](O)[C@@H](O)[C@@H]1O", "result": "not detected"}
{"smiles_repr": "COc1cc2c(=O)c(-c3ccc(O)cc3)coc2cc1O[C@@H]1O[C@H](COC(C)=O)[C@@H](O)[C@H](O)[C@H]1O", "result": "not detected"}

Below: the item to evaluate.
Recorded Decomposition efficiency: ratio of each glycoside/aglycon within its isoflavone family for CC(=O)OC[C@H]1O[C@@H](Oc2cc(O)c3c(=O)c(-c4ccc(O)cc4)coc3c2)[C@H](O)[C@@H](O)[C@@H]1O with Crude diglycosidase, please? not detected

These measurements were taken from patent US7118895B2.
